The reported numbers originate from the supplement of paper PMC6555819.

Test system: PPARg:RXRa 270nM:90nM, anti-RXR (NR concentration 270 nM, RXRa partner concentration 90 nM)
Test: PBM binding z-score (relative to random genomic background probes); higher = stronger binding; sequences stand for … in GC…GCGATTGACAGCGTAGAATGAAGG
Let's look at some sequences and their measured PBM binding z-score.
Would you mind answering with just the numeric figure?

sequence record | PBM binding z-score
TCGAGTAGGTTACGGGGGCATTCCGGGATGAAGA | 5.67
CTATGTAGGTTAAGGGGGTCATTCGGTTTGAAAG | 7.83
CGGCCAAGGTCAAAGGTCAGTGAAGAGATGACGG | 8.98

Let us move to another entry and its PBM binding z-score.
Q. # input sequence: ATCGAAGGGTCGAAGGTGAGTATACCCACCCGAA ; wanted: its PBM binding z-score
A. 3.11

====

System: LXRb:RXRa (NR concentration 270 nM, RXRa partner concentration 90 nM)
Test: PBM binding z-score (relative to random genomic background probes); higher = stronger binding; sequences stand for … in GC…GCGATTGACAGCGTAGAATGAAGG
experimental endpoint: PBM binding z-score

Q. # input sequence: AGTCAAAGTTCAGGACGAGGTAAAGTAAAGCACG ; wanted: its PBM binding z-score
A. 1.9

Q. Note, next up: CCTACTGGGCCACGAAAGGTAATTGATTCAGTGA
A. -0.403

Q. Note, next up: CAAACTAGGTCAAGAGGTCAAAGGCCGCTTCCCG
A. 5.21

====

Tested on: VDR:RXRa (NR concentration 270 nM, RXRa partner concentration 90 nM)
Experiment: PBM binding z-score (relative to random genomic background probes); higher = stronger binding; sequences stand for … in GC…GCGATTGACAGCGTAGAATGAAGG
experimental endpoint: PBM binding z-score
Would you mind answering with just the numeric figure?

Sample answers from the record:
sequence record | observed
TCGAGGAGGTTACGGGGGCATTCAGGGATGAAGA | 5.08
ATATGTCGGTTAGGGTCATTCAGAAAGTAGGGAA | 4.56
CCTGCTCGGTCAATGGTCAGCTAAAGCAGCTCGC | -0.375
AGTCAAAGTTCTTCTAGGTAACGTAAGATATGCT | 0.489
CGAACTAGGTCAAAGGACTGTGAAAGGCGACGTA | 1.14
TTACCAAGGTGACCTGAGGTCGTTGATCCAACTC | 4.87
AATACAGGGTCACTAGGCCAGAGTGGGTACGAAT | 3.97
CCTACAGGGCCAAAGGTCATTGATTCCAATGCTC | 5.03
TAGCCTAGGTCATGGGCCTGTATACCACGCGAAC | 1.98
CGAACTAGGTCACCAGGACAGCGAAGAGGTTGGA | 1.88

Q. # input sequence: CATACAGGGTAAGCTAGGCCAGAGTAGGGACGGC ; wanted: its PBM binding z-score
A. -0.528

Q. Note, next up: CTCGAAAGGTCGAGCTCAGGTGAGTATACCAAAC
A. 2.71

====

Let's look at some sequences and their measured PBM binding z-score.
Test system: VDR homodimer (NR concentration 270 nM)
Experiment: PBM binding z-score (relative to random genomic background probes); higher = stronger binding; sequences stand for … in GC…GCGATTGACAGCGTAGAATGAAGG
Would you mind answering with just the numeric figure?

Sample answers from the record:
sequence record | target system | experimental endpoint | observed
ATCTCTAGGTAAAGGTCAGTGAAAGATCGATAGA | VDR homodimer (NR concentration 270 nM) | PBM binding z-score | 1.17
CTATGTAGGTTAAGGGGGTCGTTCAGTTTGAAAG | VDR homodimer (NR concentration 270 nM) | PBM binding z-score | 4.04
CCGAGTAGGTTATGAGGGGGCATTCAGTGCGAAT | VDR homodimer (NR concentration 270 nM) | PBM binding z-score | 3.74
ATCGAAAGGTCGTGAGGTGAGTACACAGAAAGGC | VDR homodimer (NR concentration 270 nM) | PBM binding z-score | 1.92
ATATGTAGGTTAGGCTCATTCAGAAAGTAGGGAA | VDR homodimer (NR concentration 270 nM) | PBM binding z-score | -0.178
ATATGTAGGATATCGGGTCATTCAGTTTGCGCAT | VDR homodimer (NR concentration 270 nM) | PBM binding z-score | 2.6

Q. # input sequence: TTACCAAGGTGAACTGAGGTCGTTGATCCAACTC ; wanted: its PBM binding z-score
A. 3.63

Q. Note, next up: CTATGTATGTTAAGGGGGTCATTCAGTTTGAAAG
A. 6.32

Q. Note, next up: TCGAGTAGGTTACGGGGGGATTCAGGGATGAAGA
A. 2.02

Q. Note, next up: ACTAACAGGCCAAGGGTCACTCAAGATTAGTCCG
A. 1.46

Q. Note, next up: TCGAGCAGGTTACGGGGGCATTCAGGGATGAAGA
A. 2.9

Q. Note, next up: TCATATAGGTAATAAAGGTGAAAGTCGGCATCTA
A. 0.491

Q. Note, next up: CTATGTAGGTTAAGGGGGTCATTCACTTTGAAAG
A. 5.5

Q. Note, next up: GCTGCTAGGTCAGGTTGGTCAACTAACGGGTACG
A. 0.97
